Catalogue of % displacement at 10 nM readings, one per entry.
TEST_TARGET: human cloned somatostatin receptor 3 (human) (UniProt P32745)
Sequence (P32745 whole entry): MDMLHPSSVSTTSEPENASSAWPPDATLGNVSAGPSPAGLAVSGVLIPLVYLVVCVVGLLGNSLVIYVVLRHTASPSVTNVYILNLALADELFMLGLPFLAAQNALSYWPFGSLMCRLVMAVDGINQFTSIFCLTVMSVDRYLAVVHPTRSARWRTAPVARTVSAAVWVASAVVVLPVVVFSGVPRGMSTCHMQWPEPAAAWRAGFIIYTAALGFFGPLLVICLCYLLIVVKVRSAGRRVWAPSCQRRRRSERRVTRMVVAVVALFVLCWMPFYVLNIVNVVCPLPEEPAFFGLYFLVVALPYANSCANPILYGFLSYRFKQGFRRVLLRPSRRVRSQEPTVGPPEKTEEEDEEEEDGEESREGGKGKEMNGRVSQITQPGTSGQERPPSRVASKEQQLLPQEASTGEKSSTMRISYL
ASSAY_NAME: 125I-Tyr11-SRIF-14 displacement
*1 amine or outer side, *2 acyl side, *3 side chain or, on linkers, in order; H or OH if unused. Bridges are numbered along the chain shown (N, C = ends). Where no end group is shown, it is not given here. [ ]: non-standard residue; d: D form. The star is where a group is joined. DOTA = O=C(O)CN1CCN(CC(=O)O)CCN(CC(=O)*)CCN(CC(=O)O)CC1; N(2-mercaptoethyl)Gly = O=C(CN(CCS[*:3])[*:1])[*:2]; 4Amb = NCc1ccc(C(=O)O)cc1; Orn = NCCC[C@H](N)C(=O)O

>  <BINDER>
K[dF]RCF[dW]KTF[N(2-mercaptoethyl)Gly]-NH2 (disulfide 4-10; not fully specified (residue 1, N-terminus); printed as (DOTA)2-Lys1-D-Phe2-Arg3-Cys4-Phe5-D-Trp6-Lys7-Thr8-Phe9-NTEG10-NH2 (cyclo 3-9); also: (DOTA)2 on Lys1, sites not given here) [SEQ ID NO: 16]

>  <% displacement at 10 nM [%]>
88

$$$$
>  <BINDER>
{DOTA-4Amb}-[dF]RCF[dW]KTF[N(2-mercaptoethyl)Gly]-NH2 (disulfide 3-9) [SEQ ID NO: 18]

>  <% displacement at 10 nM [%]>
85

$$$$
>  <BINDER>
{DOTA}-[dF]EE[Orn]CF[dW]KTF[N(2-mercaptoethyl)Gly]-NH2 (disulfide 5-11; SMILES C[C@@H](O)[C@@H]1NC(=O)[C@H](CCCCN)NC(=O)[C@@H](Cc2c[nH]c3ccccc23)NC(=O)[C@H](Cc2ccccc2)NC(=O)[C@@H](NC(=O)[C@H](CCCN)NC(=O)[C@H](CCC(=O)O)NC(=O)[C@H](CCC(=O)O)NC(=O)[C@@H](Cc2ccccc2)NC(=O)CN2CCN(CC(=O)O)CCN(CC(=O)O)CCN(CC(=O)O)CC2)CSSCCN(CC(N)=O)C(=O)[C@H](Cc2ccccc2)NC1=O) [SEQ ID NO: 22]

>  <% displacement at 10 nM [%]>
49

$$$$
>  <BINDER>
{DOTA}-G[dF]RCF[dW]KTF[N(2-mercaptoethyl)Gly]-NH2 (disulfide 4-10; SMILES C[C@@H](O)[C@@H]1NC(=O)[C@H](CCCCN)NC(=O)[C@@H](Cc2c[nH]c3ccccc23)NC(=O)[C@H](Cc2ccccc2)NC(=O)[C@@H](NC(=O)[C@H](CCCNC(=N)N)NC(=O)[C@@H](Cc2ccccc2)NC(=O)CNC(=O)CN2CCN(CC(=O)O)CCN(CC(=O)O)CCN(CC(=O)O)CC2)CSSCCN(CC(N)=O)C(=O)[C@H](Cc2ccccc2)NC1=O) [SEQ ID NO: 11]

>  <% displacement at 10 nM [%]>
88

$$$$
>  <BINDER>
{DOTA}-[dF]E[Orn]CF[dW]KTF[N(2-mercaptoethyl)Gly]-NH2 (disulfide 4-10; SMILES C[C@@H](O)[C@@H]1NC(=O)[C@H](CCCCN)NC(=O)[C@@H](Cc2c[nH]c3ccccc23)NC(=O)[C@H](Cc2ccccc2)NC(=O)[C@@H](NC(=O)[C@H](CCCN)NC(=O)[C@H](CCC(=O)O)NC(=O)[C@@H](Cc2ccccc2)NC(=O)CN2CCN(CC(=O)O)CCN(CC(=O)O)CCN(CC(=O)O)CC2)CSSCCN(CC(N)=O)C(=O)[C@H](Cc2ccccc2)NC1=O) [SEQ ID NO: 23]

>  <% displacement at 10 nM [%]>
56

$$$$
>  <BINDER>
{DOTA}-[dF][Orn]CF[dW]KTF[N(2-mercaptoethyl)Gly]-NH2 (disulfide 3-9) [SEQ ID NO: 21]

>  <% displacement at 10 nM [%]>
93

$$$$
